Listed below: self-cleavage values for each entry.
B1: LINE1-mini (parent)
chain: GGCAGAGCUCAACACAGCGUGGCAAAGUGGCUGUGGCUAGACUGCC

- Variants of: B1
- TEST: self-cleavage, relative activity (ratio to wild type); higher = more cleavage; in vitro, sequencing; the parent is a self-cleaving ribozyme
MEASURE: self-cleavage

> print(dat)
    variant.annotation        measure  value
 1           G21A C46G  self-cleavage    1.5
 2           G17C A24G  self-cleavage   0.71
 3           G22U A26G  self-cleavage   1.68
 4           G19A U28C  self-cleavage   0.51
 5           A25C G36A  self-cleavage   0.21
 6           C10G G29C  self-cleavage   0.04
 7           A24C G30U  self-cleavage   0.79
 8           G44C C46A  self-cleavage    0.1
 9           A26U G44U  self-cleavage   0.41
10           G30A C45U  self-cleavage   1.57
11            G5C C18A  self-cleavage   0.05
12            G7A C13A  self-cleavage   0.45
13            C8A C37U  self-cleavage   0.17
14           C15A G17A  self-cleavage   0.14
15            G7U A26G  self-cleavage   0.05
16           C15U C46U  self-cleavage   0.43
17           A26G C45A  self-cleavage   1.06
18           A11C C31G  self-cleavage   0.01
19           A14G G36A  self-cleavage   0.26
20           C10U C46U  self-cleavage   0.21
21           G22C C45G  self-cleavage   0.17
22           U20C A25G  self-cleavage   0.53
23            G5C A14C  self-cleavage   0.07
24             G1U C3G  self-cleavage   0.25
25           G22C C31A  self-cleavage   0.14
26           A25C G30U  self-cleavage   1.11
27           G19U A24G  self-cleavage   0.45
28           G21U G35U  self-cleavage   0.22
29           C18G C23U  self-cleavage   0.89
30           G29A U38A  self-cleavage   0.28
31            G1U C15A  self-cleavage   0.08
32           A14C C37G  self-cleavage   0.11
33           U43G G44A  self-cleavage   0.37
34           G36A C37G  self-cleavage   0.05
35           A25C G33A  self-cleavage   0.05
36            U9C G44C  self-cleavage   0.02
37             G2A A6G  self-cleavage   0.13
38           U20A C42G  self-cleavage   0.04
39            G7A C31G  self-cleavage   0.08
40           A11G C42U  self-cleavage   0.01
41           U32C G33A  self-cleavage   0.05
42            G2A A24C  self-cleavage   1.16
43           G33U C46A  self-cleavage   0.07
44           C15A A25U  self-cleavage   0.07
45           C13U G29C  self-cleavage   0.09
46           C10G C42U  self-cleavage   0.03
47           G29U G40C  self-cleavage   0.14
48            A6C G40C  self-cleavage    0.1
49           A12C G30U  self-cleavage   0.01
50           G22A C42U  self-cleavage    0.7
51            C8U G19C  self-cleavage   0.17
52            U9G C46G  self-cleavage   0.05
53           A11U U20G  self-cleavage   0.16
54           A12C G35A  self-cleavage   0.04
55           A16C G36A  self-cleavage   0.12
56            A6G C46U  self-cleavage   0.09
57            G7C U20A  self-cleavage   0.06
58           A14C C45A  self-cleavage   0.08
59            G7A A12U  self-cleavage   0.15
60           A14U A24C  self-cleavage   0.15
61           A26U C37G  self-cleavage   0.05
62           C10G G27U  self-cleavage   0.08
63           A26U U32A  self-cleavage   0.11
64           A11C G35A  self-cleavage   0.03
65            A4C U34G  self-cleavage   0.02
66           A26U A41C  self-cleavage   0.07
67            G1C G21C  self-cleavage   0.06
68            G1U G17A  self-cleavage    0.1
69           A25C G44A  self-cleavage   0.42
70           A11U C23U  self-cleavage    0.1
71            A6G A26G  self-cleavage    0.1
72           C37G G44A  self-cleavage   0.04
73             G7U C8U  self-cleavage   0.34
74            C8A C31G  self-cleavage   0.15
75             G1U U9A  self-cleavage   0.03
76           G19A A41C  self-cleavage   0.08
77           A14C C15G  self-cleavage   0.02
78            G2U A16U  self-cleavage   0.02
79           G36U G40A  self-cleavage   0.13
80            G7U A12U  self-cleavage   0.07
81           C10G A14G  self-cleavage   0.09
82           C37U U43C  self-cleavage   0.06
83           A12C A14C  self-cleavage   0.02
84            C3G A26G  self-cleavage   0.36
85            G2C A16G  self-cleavage   0.09
86           G33A G44U  self-cleavage   0.03
87           A12C A39C  self-cleavage   0.03
88             A6U C8A  self-cleavage   0.27
89            G5A U20A  self-cleavage   0.13
90            U9A C15A  self-cleavage   0.13
91            G1U G19U  self-cleavage   0.11

All figures here come from the RNAGym collection of RNA variant scans (doi:10.7554/elife.90254).
